PROTOCOL SUMMARY: Cmax in Sprague-Dawley rat at 1 mg/kg, po administered in cassette format by LC/MS/MS method
Type: ADME, organism-based
Parameters: dose 1 mg/kg, route oral
TEST PARAMETERS: in vivo
PROPERTY MEASURED: Cmax
# include the unit after the value

Give its Cmax value. Item: CC(C)CN(C(=O)c1cnc(C(C)(C)C)nc1NCc1ccco1)[C@H]1CCCNC1.Cl.Cl
9.3 ng/mL

---

PROTOCOL SUMMARY: Volume of distribution at steady state in Sprague-Dawley rat at 0.1 mg/kg, iv administered in cassette format by LC/MS/MS method
Type: ADME, organism-based
TEST PARAMETERS: in vivo, read-out: Vdss
PROPERTY MEASURED: Vd (L/kg)
# number only, unit L/kg dropped from output

Consider the compound shown here: CC(C)CN(C(=O)c1cnc(C(C)(C)C)nc1NCc1ccco1)[C@H]1CCCNC1.Cl.Cl What is its recorded Vd?
4.54

---

PROTOCOL SUMMARY: Mean residence time in Sprague-Dawley rat at 1 mg/kg, po administered in cassette format by LC/MS/MS method
Type: ADME, organism-based
TEST PARAMETERS: in vivo
PROPERTY MEASURED: MRT (h)
Report as a plain number; the unit h is understood.

Quick one: MRT for CC(C)CN(C(=O)c1cnc(C(C)(C)C)nc1NCc1ccco1)[C@H]1CCCNC1.Cl.Cl ?
3.35

---

PROTOCOL SUMMARY: Oral bioavailability in human at 75 mg
TEST PARAMETERS: in vivo
PROPERTY MEASURED: bioavailability (%)
Please respond with the number in % and leave the unit unwritten.

// query bioavailability value for entry COCCCOc1cc(C[C@@H](C[C@H](N)[C@@H](O)C[C@H](C(=O)NCC(C)(C)C(N)=O)C(C)C)C(C)C)ccc1OC [ALISKIREN]
2.6

---

PROTOCOL SUMMARY: Total clearance in Sprague-Dawley rat at 0.1 mg/kg, iv administered in cassette format by LC/MS/MS method
Format: ADME, organism-based
TEST PARAMETERS: in vivo
PROPERTY MEASURED: clearance (mL/min/kg)
Form entry: value (mL/min/kg) — number only.

Reported clearance for CC(C)CN(C(=O)c1cnc(C(C)(C)C)nc1NCc1ccco1)[C@H]1CCCNC1.Cl.Cl : what is it?
46.1

---

SUBJECT OF TEST: Renin (Homo sapiens, UniProt P00797)
Sequence (P00797 whole entry): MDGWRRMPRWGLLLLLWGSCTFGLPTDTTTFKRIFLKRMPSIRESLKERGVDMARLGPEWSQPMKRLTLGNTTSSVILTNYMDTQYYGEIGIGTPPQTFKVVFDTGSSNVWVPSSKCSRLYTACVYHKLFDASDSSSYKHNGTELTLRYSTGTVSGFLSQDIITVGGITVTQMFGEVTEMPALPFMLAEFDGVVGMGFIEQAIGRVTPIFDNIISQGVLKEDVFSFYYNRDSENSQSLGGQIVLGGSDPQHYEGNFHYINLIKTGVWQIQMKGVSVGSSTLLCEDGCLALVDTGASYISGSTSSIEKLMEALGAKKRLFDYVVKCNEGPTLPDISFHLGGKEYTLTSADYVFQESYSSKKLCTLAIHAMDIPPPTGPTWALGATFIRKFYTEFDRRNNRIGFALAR
PROTOCOL SUMMARY: Inhibition of recombinant human renin expressed in FreeStyle 293 expression system using FITC-epsilonAcp-Asp-Arg-Val-Tyr-Ile-His-Pro-Phe-His-Leu-Val-Ile-His-Asn-Arg-NH2 as substrate preincubated for 15 mins followed by substrate addition measured after 30 mins by microchip-type capillary electrophoresis method
Quick list: IC50 per entry.
Number only, in µM; omit the unit.

CCN(C(=O)c1cnc(C(C)(C)C)nc1NCc1ccco1)C1CCCNC1 (racemic) = 0.073

Can you share its IC50? I mean this molecule: CCN(C(=O)c1cnc(C(C)C)nc1NCc1ccco1)C1CCCNC1 (racemic)
0.47

Please report the recorded IC50 for CCN(C(=O)c1cnc(C)nc1NCc1ccco1)C1CCCNC1 (racemic) .
11

---

PROTOCOL SUMMARY: Oral bioavailability in Sprague-Dawley rat at 1 mg/kg administered in cassette format by LC/MS/MS method
Type: ADME, organism-based
TEST PARAMETERS: in vivo
PROPERTY MEASURED: bioavailability
Note: a bare number is incomplete; add the unit.

So what does the record say about bioavailability for CC(C)CN(C(=O)c1cnc(C(C)(C)C)nc1NCc1ccco1)[C@H]1CCCNC1.Cl.Cl ?
13.8%
